B1: VAMP4 (parent)
chain: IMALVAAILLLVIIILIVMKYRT

Variants of: B1
Assay: protein stability index of a GFP-peptide fusion (GPS, HEK-293T) (PSI 1-6); higher = more stable;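 also: lentivirally expressed fusions sorted by FACS into six bins by GFP to DsRed ratio, PSI derived from sequencing read proportions per bin multiplied by bin number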
Conditions: c terminus: native
Response key: 1 means protein stability index >= 3; 0 means protein stability index < 3.

Consider the worked cases shown below.
>>> df
   mutations  group
0        L4M      1
1        I1K      1
2        I8E      0
3        V5F      1
4        L4Q      0
5       L11H      0
6       I14W      0
7       L16I      1
8        L4R      1
9       I14T      1

Incoming: Test whether the variant T23M records protein stability index of 3 or higher.
Outgoing: 1

Incoming: Test whether the variant Y21H records protein stability index of 3 or higher.
Outgoing: 0
